- EXPERIMENTAL TARGET: rat mGlu2 receptor (Rattus norvegicus, UniProt P31421)
- Sequence (P31421 19-872): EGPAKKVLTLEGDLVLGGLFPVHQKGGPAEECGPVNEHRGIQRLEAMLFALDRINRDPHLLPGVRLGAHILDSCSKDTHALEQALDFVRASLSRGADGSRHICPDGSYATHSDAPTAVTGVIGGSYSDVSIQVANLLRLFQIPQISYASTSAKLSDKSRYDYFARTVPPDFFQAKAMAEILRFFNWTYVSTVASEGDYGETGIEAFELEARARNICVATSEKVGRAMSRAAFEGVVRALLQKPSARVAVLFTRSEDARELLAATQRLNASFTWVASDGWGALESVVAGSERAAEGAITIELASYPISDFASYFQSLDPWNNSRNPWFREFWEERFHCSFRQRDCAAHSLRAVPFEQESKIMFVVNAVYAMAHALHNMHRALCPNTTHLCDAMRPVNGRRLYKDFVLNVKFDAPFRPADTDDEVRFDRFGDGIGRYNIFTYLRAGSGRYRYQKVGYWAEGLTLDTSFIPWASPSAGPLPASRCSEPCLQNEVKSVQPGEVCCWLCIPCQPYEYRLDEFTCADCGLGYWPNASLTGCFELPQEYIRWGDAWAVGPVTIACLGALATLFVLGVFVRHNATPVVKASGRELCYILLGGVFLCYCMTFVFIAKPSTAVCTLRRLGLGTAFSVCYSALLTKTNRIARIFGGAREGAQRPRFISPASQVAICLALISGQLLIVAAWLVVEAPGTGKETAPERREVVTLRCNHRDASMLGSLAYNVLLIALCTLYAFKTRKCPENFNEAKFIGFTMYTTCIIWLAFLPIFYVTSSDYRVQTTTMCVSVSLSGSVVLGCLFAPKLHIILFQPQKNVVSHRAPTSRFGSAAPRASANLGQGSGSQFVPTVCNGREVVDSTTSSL
pKi: −log10 of the molar value.
Readings of pKi for the listed compounds

STRUCTURE SMILES STRING	pKi
CC(C)CNc1cc2c(cc1C(F)(F)F)NC(=O)CC(c1cccc(-c3ccc(S(N)(=O)=O)cc3)c1)=N2	7.68
CC(C)CNc1cc2c(cc1C(F)(F)F)NC(=O)CC(c1cccc(-c3cccc(S(N)(=O)=O)c3)c1)=N2	8.44
CC(C)CN(C)c1cc2c(cc1C(F)(F)F)NC(=O)CC(c1cccc(-c3cccc(S(N)(=O)=O)c3)c1)=N2	8.06
Cc1cc2c(cc1C(F)(F)F)NC(=O)CC(c1cccc(-c3ccc(S(N)(=O)=O)cc3)c1)=N2	8.72
Cc1cc2c(cc1C(F)(F)F)NC(=O)CC(c1cccc(-c3cccc(S(=O)(=O)NC(C)(C)C)c3)c1)=N2	7.70
NS(=O)(=O)c1cccc(-c2cccc(C3=Nc4ccc(-c5ccccc5F)cc4NC(=O)C3)c2)c1	8.66
CC(C)(C)NS(=O)(=O)c1cccc(-c2cccc(C3=Nc4ccc(C(F)(F)F)cc4NC(=O)C3)c2)c1	7.92
NS(=O)(=O)c1ccc(-c2cccc(C3=Nc4ccc(-c5ccccc5F)cc4NC(=O)C3)c2)cc1	8.25
